tested on: Mus musculus; experiment: Biodistribution was studied by injecting intravenously into C57B1/6 mice bearing subcutaneously transplanted B16 blood after 1 hr.; format: ADME, organism-based; settings: in vivo, iv
parameter measured: ID/g (%)

| test smiles | unit descriptor | reported measurement |
| --- | --- | --- |
| CCN(CC)CCNC(=O)c1cc(Br)c(N)c(I)c1OC | % | 2.32 |
| CCN(CC)CCNC(=O)c1ccc(OC)c(I)c1 | % | 0.2 |
| CCN(CC)CCNC(=O)c1cc(I)c(NC(C)=O)cc1OC | % | 3.3 |

[A] CCN(CC)CCNC(=O)c1ccc(NC(C)=O)c(I)c1
[B] CCN(CC)CCNC(=O)c1cc(I)c(N)cc1OC
[C] CCN(CC)CCNC(=O)c1cc(OC)ccc1I
[D] CCN(CC)CCNC(=O)c1cc(I)ccc1OC
-- ask Your job: order these 4 records by ID/g, ascending. Rank them, then answer with their labels in that order.
-- reply D, C, B, A
(D: 0.46%, C: 0.9%, B: 1.93%, A: 6.5%)

* * *

system: Mus musculus; test: Biodistribution was studied by injecting intravenously into C57B1/6 mice bearing subcutaneously transplanted B16 […] after 6 hr.; assay type: ADME, organism-based; conditions: in vivo, iv
parameter measured: ID/g (%)

Below, 5 compounds whose answers are already recorded.
| test smiles | unit descriptor | ID/g |
| --- | --- | --- |
| CCN(CC)CCNC(=O)c1ccc(OC)c(I)c1 | % | 0.05 |
| CCN(CC)CCNC(=O)c1cc(Br)c(N)c(I)c1OC | % | 1.84 |
| CCN(CC)CCNC(=O)c1ccc(NC(C)=O)c(I)c1 | % | 1.39 |
| CCN(CC)CCNC(=O)c1cc(OC)ccc1I | % | 0.31 |
| CCN(CC)CCNC(=O)c1cc(I)c(NC(C)=O)cc1OC | % | 2.09 |

[I] CCN(CC)CCNC(=O)c1cc(I)ccc1OC
[II] CCN(CC)CCNC(=O)c1cc(I)c(N)cc1OC
-- ask Select one. Lower ID/g: I or II Write down the label of the entry you select.
-- reply I

* * *

tested on: Mus musculus; assay: Biodistribution was studied by injecting intravenously into C57B1/6 mice bearing subcutaneously transplanted B16 muscle after 1 hr.; format: ADME, organism-based, Muscle tissue; conditions: in vivo, iv
parameter measured: ID/g (%)

Below, 4 compounds whose answers are already recorded.
| test smiles | unit descriptor | ID/g |
| --- | --- | --- |
| CCN(CC)CCNC(=O)c1cc(Br)c(N)c(I)c1OC | % | 0.94 |
| CCN(CC)CCNC(=O)c1cc(I)ccc1OC | % | 0.19 |
| CCN(CC)CCNC(=O)c1ccc(OC)c(I)c1 | % | 0.19 |
| CCN(CC)CCNC(=O)c1cc(I)c(NC(C)=O)cc1OC | % | 1.37 |

[A] CCN(CC)CCNC(=O)c1cc(OC)ccc1I
[B] CCN(CC)CCNC(=O)c1cc(I)c(N)cc1OC
-- ask Select one. Lower ID/g: A or B Write down the label of the entry you select.
-- reply A
(A: 0.38%, B: 0.61%)

* * *

tested on: Mus musculus; test: Biodistribution was studied by injecting intravenously into C57B1/6 mice bearing subcutaneously transplanted B16 brain after 6 hr.; type: ADME, organism-based; details: in vivo, iv
parameter measured: ID/g (%)

| test smiles | subject of test | ID/g / % |
| --- | --- | --- |
| CCN(CC)CCNC(=O)c1ccc(OC)c(I)c1 | Mus musculus | 0.01 |

[A] CCN(CC)CCNC(=O)c1cc(I)ccc1OC
[B] CCN(CC)CCNC(=O)c1cc(OC)ccc1I
-- ask // max by ID/g over [ A , B ] Write down the label of the entry you select.
-- reply A

* * *

experiment: The lipophilicity was measured in an octanol/water system at pH 7.4.; type: physicochemical
parameter measured: logD

Below, 4 compounds whose answers are already recorded.
| test smiles | parameter measured | reported measurement |
| --- | --- | --- |
| CCN(CC)CCNC(=O)c1ccc(OC)c(I)c1 | logD | 1.13 |
| CCN(CC)CCNC(=O)c1cc(I)c(N)cc1OC | logD | 1.62 |
| CCN(CC)CCNC(=O)c1cc(I)c(NC(C)=O)cc1OC | logD | 1.78 |
| CCN(CC)CCNC(=O)c1cc(I)ccc1OC | logD | 1.26 |

[I] CCN(CC)CCNC(=O)c1cc(OC)ccc1I
[II] CCN(CC)CCNC(=O)c1cc(Br)c(N)c(I)c1OC
-- ask // max by logD over [ I , II ] Write down the label of the entry you select.
-- reply II
(II: 1.81, I: 1.16)

* * *

system: Mus musculus; experiment: Biodistribution was studied by injecting intravenously into C57B1/6 mice bearing subcutaneously transplanted B16 blood after 6 hr.; assay type: ADME, organism-based; details: in vivo, iv
parameter measured: ID/g (%)

Below, 5 compounds whose answers are already recorded.
| test smiles | unit descriptor | ID/g |
| --- | --- | --- |
| CCN(CC)CCNC(=O)c1cc(OC)ccc1I | % | 0.33 |
| CCN(CC)CCNC(=O)c1ccc(NC(C)=O)c(I)c1 | % | 1.51 |
| CCN(CC)CCNC(=O)c1cc(Br)c(N)c(I)c1OC | % | 1.86 |
| CCN(CC)CCNC(=O)c1cc(I)c(NC(C)=O)cc1OC | % | 2.56 |
| CCN(CC)CCNC(=O)c1ccc(OC)c(I)c1 | % | 0.04 |

[A] CCN(CC)CCNC(=O)c1cc(I)ccc1OC
[B] CCN(CC)CCNC(=O)c1cc(I)c(N)cc1OC
-- ask // max by ID/g over [ A , B ] Write down the label of the entry you select.
-- reply B
(B: 0.85%, A: 0.14%)

* * *

test system: Mus musculus; test: Amount of urinary radioactivity collected within 4 hr after iv injection into C57B1/6 mice was analyzed by RP-HPLC.; format: ADME, organism-based, Urine; details: in vivo
parameter measured: ID (%)

Below, 2 molecules whose answers are already recorded.
| test smiles | ID (%) |
| --- | --- |
| CCN(CC)CCNC(=O)c1cc(I)ccc1OC | 71 |
| CCN(CC)CCNC(=O)c1cc(I)c(NC(C)=O)cc1OC | 16 |

[P] CCN(CC)CCNC(=O)c1ccc(OC)c(I)c1
[Q] CCN(CC)CCNC(=O)c1cc(Br)c(N)c(I)c1OC
-- ask Select one. Lower ID: P or Q Write down the label of the entry you select.
-- reply Q

* * *

test system: Mus musculus; experiment: Biodistribution was studied by injecting intravenously into C57B1/6 mice bearing subcutaneously transplanted B16 melanoma after 1 hr.; type: ADME, organism-based; conditions: in vivo, iv
parameter measured: ID/g (%)

Below, 5 compounds whose answers are already recorded.
| test smiles | unit descriptor | ID/g |
| --- | --- | --- |
| CCN(CC)CCNC(=O)c1cc(Br)c(N)c(I)c1OC | % | 16.61 |
| CCN(CC)CCNC(=O)c1ccc(OC)c(I)c1 | % | 6.5 |
| CCN(CC)CCNC(=O)c1cc(I)ccc1OC | % | 7.73 |
| CCN(CC)CCNC(=O)c1cc(OC)ccc1I | % | 8.06 |
| CCN(CC)CCNC(=O)c1cc(I)c(N)cc1OC | % | 4.66 |

[a] CCN(CC)CCNC(=O)c1ccc(NC(C)=O)c(I)c1
[b] CCN(CC)CCNC(=O)c1cc(I)c(NC(C)=O)cc1OC
-- ask Select one. Lower ID/g: a or b Write down the label of the entry you select.
-- reply a
(a: 6.21%, b: 21.87%)

* * *

test system: Mus musculus; assay: Biodistribution was studied by injecting intravenously into C57B1/6 mice bearing subcutaneously transplanted B16 liver after 6 hr.; assay type: ADME, organism-based; conditions: in vivo, iv
parameter measured: ID/g (%)

Below, 3 compounds whose answers are already recorded.
| test smiles | parameter measured | unit descriptor | reported measurement |
| --- | --- | --- | --- |
| CCN(CC)CCNC(=O)c1ccc(OC)c(I)c1 | ID/g | % | 0.29 |
| CCN(CC)CCNC(=O)c1cc(I)ccc1OC | ID/g | % | 0.26 |
| CCN(CC)CCNC(=O)c1cc(I)c(NC(C)=O)cc1OC | ID/g | % | 9.86 |

[a] CCN(CC)CCNC(=O)c1cc(Br)c(N)c(I)c1OC
[b] CCN(CC)CCNC(=O)c1cc(I)c(N)cc1OC
[c] CCN(CC)CCNC(=O)c1cc(OC)ccc1I
[d] CCN(CC)CCNC(=O)c1ccc(NC(C)=O)c(I)c1
-- ask Your job: order these 4 records by ID/g, ascending. Rank them, then answer with their labels in that order.
-- reply c, d, b, a
(c: 0.23%, d: 0.77%, b: 3.43%, a: 9.61%)
